We begin with a simple list: items and their reported cell viability.
Test system: Caco-2
Test: cell viability relative to DMSO; higher = less toxic
Conditions: 72 h; 100 nM
Hi! Could you send only the number? It should be in %, unit omitted.

Worked cases, cell viability given:
molecule: FC(F)OC(F)(F)C(F)Cl (configuration not stated)
measurementUnit: %
cell viability: 98.3
--
molecule: CCN(CC)CCNC(=O)c1ccc(I)cc1
measurementUnit: %
cell viability: 104
--
molecule: CC1=CC(=C(c2ccc(N)cc2)c2ccc(N)cc2)C=CC1=N
measurementUnit: %
cell viability: 106
--
molecule: Oc1cc(O)c2c(c1)O[C@H](c1ccc(O)c(O)c1)[C@H](O)[C@H]2c1c(O)cc(O)c2c1O[C@H](c1ccc(O)c(O)c1)[C@H](O)C2
measurementUnit: %
cell viability: 102
--
molecule: N[C@H](C(=O)O)[C@H](O)c1ccc(O)c(O)c1
measurementUnit: %
cell viability: 103

Read the entry CN1CCCN=C1/C=C/c1cccs1 [pyrantel-pamoate] and write its reported cell viability.
98.8

Return the recorded cell viability value; entry: `CCOC(=O)[N-]c1c[n+](N2CCOCC2)no1`
106

Consider the molecule `CC(C)(COP(=O)(O)OP(=O)(O)OC[C@H]1O[C@@H](n2cnc3c(N)ncnc32)[C@H](O)[C@@H]1OP(=O)(O)O)[C@@H](O)C(=O)NCCC(=O)NCCS` . State its measured cell viability.
102

Input `Nc1nc(OCc2cc(Br)cs2)c2[nH]cnc2n1` , output reported cell viability.
110

Please give the documented cell viability of `CCc1c(O)cc(O)c(C(=O)c2ccc(OCCN3CCOCC3)c(OC)c2)c1CC(=O)N(CCOC)CCOC`
101

Please give measured cell viability of the following entry: `N[C@@H](CSCCCO)C(=O)O`
97.3

State its cell viability for this molecule: CCCCCCCC/C=C/C(=O)O [trans-2-undecenoic-acid]
108

Specify reported cell viability for the molecule shown: CC(=O)[C@@]12O[C@](C)(c3ccccc3)O[C@@H]1C[C@H]1[C@@H]3CCC4=CC(=O)CC[C@]4(C)[C@H]3CC[C@@]12C [algestone-acetophenide]
97.5

Name the recorded cell viability of the item `c1ccc(-c2oc3ncnc(NC[C@@H]4CCCO4)c3c2-c2ccccc2)cc1` in your answer.
96.6

Consider the molecule COC(=O)C1=C(C)NC(C)=C(C(=O)OC2CCCN(Cc3ccccc3)C2)C1c1cccc([N+](=O)[O-])c1 (configuration not stated) and give its recorded cell viability.
101

Identify cell viability associated with the molecule `Cc1cc(C)c(CNC(=O)c2cc(-c3ccc(N4CCN(C)CC4)nc3)cc3c2c(C)cn3C(C)C)c(=O)[nH]1`
93.7

Supply reported cell viability belonging to this molecule: CC(=O)C1=C(O)C=C2Oc3c(C(C)=O)c(O)c(C)c(O)c3C2(C)C1=O (stereo not drawn) [usniacin-(+)]
91.1

----------
Tested on: Caco-2
Test: cell viability relative to DMSO; higher = less toxic
Settings: 72 h; 1 nM
readoutKind: cell viability (%)
Give your result in % as a bare value.

compound: O=C(NC1CCNCC1)c1n[nH]cc1NC(=O)c1c(Cl)cccc1Cl [AT-7519]
measurementUnit: %
recordedMeasurement: 91.4

We now examine a further compound.
For the compound CC1=CC(=C(c2ccc(N)cc2)c2ccc(N)cc2)C=CC1=N [basic-fuchsin] , give its measured cell viability value.
88.8

----------
# cell viability listing for each entry below
System: HepG2
Experiment: cell viability relative to DMSO; higher = less toxic
Details: 72 h; 100 nM
Number in %, nothing else.

For orientation, consider the following solved cases.
molecule: CC(C)(C)NS(=O)(=O)c1cncc(-c2cc(F)c3nc(N)nn3c2)c1
cell viability / %: 90.7
--
molecule: O=C1OC2(c3ccccc31)c1cc(I)c(O)c(I)c1Oc1c2cc(I)c(O)c1I [erythrosine]
cell viability / %: 97.6
--
molecule: O=C(O)c1ccc(N2C(=O)/C(=C/c3ccc(-c4ccc([N+](=O)[O-])cc4)o3)C=C2c2ccccc2)cc1 [4E1RCat]
cell viability / %: 91.4

Respond only with cell viability recorded for N=C(N)S/C=C\C(=O)O [ZAPA]
104

Let me know recorded cell viability for Clc1ccc(CCCOCCCN2CCCCC2)cc1 [pitolisant] , thanks.
96

----------
Tested on: Vero E6
Assay: drug sensitivity score (DSS) for viability; higher = more toxic; extreme values may be limits of the assay
Settings: 72 h
readoutKind: drug sensitivity score
# answer = number (no unit)

Please list drug sensitivity score recorded for the compound `CCN(CC)CCCCNc1ncc2cc(-c3cc(OC)cc(OC)c3)c(NC(=O)NC(C)(C)C)nc2n1`
5.2

Please look at this compound and report its drug sensitivity score: `N#CCNC(=O)c1ccc(-c2ccnc(Nc3ccc(N4CCOCC4)cc3)n2)cc1`
3.4

Answer with reported drug sensitivity score of `O=[N+]([O-])c1c(Nc2cc(F)cc(Cl)c2)ccc2nonc12`
0

Specify reported drug sensitivity score for the compound shown: `Fc1ccc(-c2nc(-c3c(F)cccc3F)[nH]c2-c2ccncc2)cc1`
0

Query drug sensitivity score for `CCOC(=S)SSC(=S)OCC`
0

Respond only with drug sensitivity score recorded for `CCOC(=O)c1ccccc1OC(=O)CCCCCCCC(=O)Oc1ccccc1C(=O)OCC`
0

Specify measured drug sensitivity score for `CC/C(=C(/c1ccc(/C=C/C(=O)O)cc1)c1ccc2[nH]ncc2c1)c1ccc(F)cc1Cl` .
0

State its drug sensitivity score for this compound: `CCCN1CCO[C@@H]2c3cc(O)ccc3OC[C@H]21`
0

Assign drug sensitivity score to the following record: `O=C(c1ccc(CN2CCOCC2)cc1)N1CCN(C2CC2)CC1`
0

Supply drug sensitivity score value. Item: `CN(C)CCCCC(=O)Nc1ccc(NC(=S)NC(=O)c2ccc(C(C)(C)C)cc2)cc1`
3.8

# return recorded drug sensitivity score for entry `N#Cc1ccc(N2N=C3c4ccc(C(=O)O)cc4CC[C@@H]3[C@@H]2C2CCCC2)cc1Cl`
0

Complete the entry with drug sensitivity score for `c1ccc(-c2oc3ncnc(NC[C@@H]4CCCO4)c3c2-c2ccccc2)cc1`
0

Please list drug sensitivity score recorded for the compound C=CC(C)(O)CCC=C(C)C (stereo not drawn)
0

Tell me measured drug sensitivity score for COc1ccc(Cl)cc1C(=O)NCCc1ccc(C(=O)O)cc1 [meglitinide] please.
0

# return recorded drug sensitivity score for entry CC(=O)[C@@]12O[C@](C)(c3ccccc3)O[C@@H]1C[C@H]1[C@@H]3CCC4=CC(=O)CC[C@]4(C)[C@H]3CC[C@@]12C [algestone-acetophenide]
0

State, in one line, measured drug sensitivity score of COc1cc(C(=O)N(CC[C@H]2CCCN2C)C/C(C)=C/c2ccccc2F)cc(OC)c1OC (racemic)
0

Given the compound `Cc1ncc(C)n2nc([C@@H]3C[C@H]3c3nc4c5cccnc5ccn4c3C)nc12` , write its reported drug sensitivity score.
0

State, in one line, measured drug sensitivity score of `CN(C)c1cccc(-c2c3c(=O)n(-c4ccccc4Cl)[nH]c3cc(=O)n2C)c1`
0

----------
Tested on: U2OS
Test: cell viability relative to DMSO; higher = less toxic
Details: 72 h; 1000 nM
readoutKind: cell viability (%)
Respond numerically; units are % and should not be typed.

molecule: CNC(=O)[C@H]1O[C@@H](n2cnc3c(NCc4cccc(I)c4)ncnc32)[C@H](O)[C@@H]1O
targetOfAssay: U2OS
recordedMeasurement: 106
//
molecule: CC(C)NCC(O)COc1cccc2ccccc12 (stereo not given)
targetOfAssay: U2OS
recordedMeasurement: 95.6
//
molecule: CCNCc1cc(C(C)(C)C)c(O)c(C(C)(C)C)c1
targetOfAssay: U2OS
recordedMeasurement: 101
//
molecule: CCCCCCCCCCCCCCCCCCCCCCCCCCCCO
targetOfAssay: U2OS
recordedMeasurement: 96.2
//
molecule: CCOC(=O)[C@H]1O[C@@H]1C(=O)N[C@@H](CC(C)C)C(=O)NCCC(C)C
targetOfAssay: U2OS
recordedMeasurement: 102

Quickly give me recorded cell viability for `Cc1cc(C)c(N)c(C#Cc2cccc(F)c2)n1`
97.3

Report measured cell viability; entry is CC1CCc2c(N3CCC(O)CC3)c(F)cc3c(=O)c(C(=O)O)cn1c23 (stereo not given)
96.1

Entry O=C(c1ccc(Cl)o1)N1CC2CNCC2C1 (stereo not given) needs its cell viability filled in; supply it.
97.7

Determine its reported cell viability: CC1(COc2ccc(CC3SC(=O)NC3=O)cc2)CCCCC1 (stereo not given)
100

Please indicate cell viability recorded for `Clc1ccc(CCCOCCCN2CCCCC2)cc1`
97.7

State, in one line, measured cell viability of `CSCC[C@H](NC(=O)[C@H](Cc1ccccc1)NC(=O)CNC(=O)CNC(=O)[C@@H](N)Cc1ccc(O)cc1)C(=O)O`
102

Check the records and state cell viability for `O=C(CN1CCN(Cc2ccc3c(c2)OCO3)CC1)N1c2ccccc2Sc2ccccc21`
94.9

Return reported cell viability. Input molecule: `Cc1cc(C)nc(SCC(=O)Nc2ncc(Cc3cccc4ccccc34)s2)n1`
101

Identify the reported cell viability for the following entry. `Oc1cc(Cl)ccc1Oc1ccc(Cl)cc1Cl`
97.9

State its cell viability for this molecule: `CNC(=O)c1ccc2cc([C@@]3(O)CCn4cncc43)ccc2c1`
99
